Cited source: patent US7998952B2

Molecular target: recombinant human PLK1[2-369]T210D (Homo sapiens, UniProt P53350, T210D)
Construct: recombinant human PLK1[2-369]T210D; Smt (SUMO) fusion partner (N, cleaved yes)
Sequence (P53350 2-369 T210D): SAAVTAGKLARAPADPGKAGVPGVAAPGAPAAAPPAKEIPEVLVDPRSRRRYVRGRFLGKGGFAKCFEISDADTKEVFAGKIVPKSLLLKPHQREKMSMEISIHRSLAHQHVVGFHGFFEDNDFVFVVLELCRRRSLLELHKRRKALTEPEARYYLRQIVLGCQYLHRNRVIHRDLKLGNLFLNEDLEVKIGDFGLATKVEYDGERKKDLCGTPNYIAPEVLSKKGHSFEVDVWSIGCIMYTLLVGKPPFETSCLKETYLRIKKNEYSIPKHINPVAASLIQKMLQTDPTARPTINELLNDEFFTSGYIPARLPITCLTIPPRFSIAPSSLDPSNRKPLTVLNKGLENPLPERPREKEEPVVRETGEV
Assay: PLK1 DELFIA Kinase Assay
Conditions: 50 μM ATP, 2 μM peptide substrate, 0.3 nM enzyme, 90 minutes at room temperature
Protocol: Recombinant human PLK1 was expressed in E. coli as an N-terminal Smt fusion protein using a proprietary vector (pSGX4) by Structural Genomics (SGX). […] The enzymatic reaction mixture, with or without PLK inhibitors, was incubated 90 minutes at room temperature before termination with 50 μL of STOP buffer containing 1% BSA, 0.05% Tween20, 100 mM EDTA. […] Quantification of europium was done using a Pherastar (BMG Labtech)
pIC50: −log10 of the molar value.
measure: pIC50

>>> measured("Cc1nc(N(C)CCN(C)C)ccc1Nc1ncc2c(n1)-c1ccc(C(F)(F)F)cc1NC(=S)C2")
"7.60 to 8.30"
>>> measured("CN(C)CCCN(C)c1ccc(Nc2ncc3c(n2)-c2ccc(Cl)cc2NC(=S)C3)cn1")
"7.60 to 8.30"

Supply recorded pIC50 for Cc1ncc(CCN2CCN(C)CC2)cc1Nc1ncc2c(n1)-c1ccc(C(F)(F)F)cc1NC(=S)C2 here.
> 8.30

In one line, give reported pIC50 of the entry CC(C)(C)C(=O)Nc1ccc(Nc2ncc3c(n2)-c2ccc(Cl)cc2NC(=S)C3)cn1 .
7.60 to 8.30

Recall and state the measured pIC50 for Cc1nc(NC2CCN(C)CC2)ccc1Nc1ncc2c(n1)-c1ccc(C(F)(F)F)cc1NC(=S)C2 .
> 8.30

Quickly give me recorded pIC50 for Cc1nc(NC2CCNCC2)ccc1Nc1ncc2c(n1)-c1ccc(Cl)cc1NC(=S)C2
> 8.30

State its pIC50 for this compound: Cc1nc(N2CCCC2)ccc1Nc1ncc2c(n1)-c1ccc(Cl)cc1NC(=S)C2
> 8.30

Output pIC50 of Cc1nc2c(cc1Nc1ncc3c(n1)-c1ccc(C(F)(F)F)cc1NC(=S)C3)C[C@@H](N(C)C)CC2
> 8.30

Kindly indicate its recorded pIC50. Item: Cc1ncc(CCN(C)C)cc1Nc1ncc2c(n1)-c1ccc(C(F)(F)F)cc1NC(=S)C2
> 8.30

Specify reported pIC50 for the compound shown: Cc1ncc(C2CCN(C)CC2(C)C)cc1Nc1ncc2c(n1)-c1ccc(Cl)cc1NC(=S)C2 (stereo not shown)
> 8.30

Consider the compound Cc1nc(N2CCOCC2)ccc1Nc1ncc2c(n1)-c1ccc(Cl)cc1NC(=S)C2 . State its measured pIC50.
> 8.30

====

Each item that follows carries a reported pIC50.
biological target: recombinant human PLK1[2-369]T210D (Homo sapiens, UniProt P53350, T210D); construct: recombinant human PLK1[2-369]T210D; Smt (SUMO) fusion partner (N, cleaved yes); assay: PLK1 DELFIA Kinase Assay; details: 50 μM ATP, 2 μM peptide substrate, 0.3 nM enzyme, 90 minutes at room temperature
pIC50: −log10 of the molar value.

The cases that follow already have their pIC50 on record.
>>> measured("Cc1nc2c(cc1Nc1ncc3c(n1)-c1ccc(C(F)(F)F)cc1NC(=S)C3)CCCN2")
"> 8.30"
>>> measured("Cc1nc(CCCN(C)C)ccc1Nc1ncc2c(n1)-c1ccc(C(F)(F)F)cc1NC(=S)C2")
"7.60 to 8.30"
>>> measured("Cc1ccc(Nc2ncc3c(n2)-c2ccc(Cl)cc2NC(=S)C3)c(C)n1")
"> 8.30"
>>> measured("CCN1CCN(c2cncc(Nc3ncc4c(n3)-c3ccc(Cl)cc3NC(=S)C4)c2)C[C@H]1C")
"> 8.30"
>>> measured("Cc1ncc(CCN(C)C)cc1Nc1ncc2c(n1)-c1ccc(Cl)cc1NC(=S)C2")
"> 8.30"
>>> measured("CN(C)CCCc1cncc(Nc2ncc3c(n2)-c2ccc(C(F)(F)F)cc2NC(=S)C3)c1")
"> 8.30"
>>> measured("CNCCCc1cnc(C)c(Nc2ncc3c(n2)-c2ccc(C(F)(F)F)cc2NC(=S)C3)c1")
"> 8.30"
>>> measured("CN1CCN(CCc2cncc(Nc3ncc4c(n3)-c3ccc(Cl)cc3NC(=S)C4)c2)CC1")
"> 8.30"
>>> measured("Cc1ncc(CCCN)cc1Nc1ncc2c(n1)-c1ccc(C(F)(F)F)cc1NC(=S)C2")
"> 8.30"
>>> measured("Cc1nc2c(cc1Nc1ncc3c(n1)-c1ccc(Cl)cc1NC(=S)C3)CC(N(C)C)CC2 (stereo not shown)")
"> 8.30"

Check the records and state pIC50 for Cc1ncc(Nc2ncc3c(n2)-c2ccc(Cl)cc2NC(=S)C3)cc1CCCN(C)C
> 8.30

Give a short answer stating reported pIC50 for Cc1ncc(CCCN(C)C)cc1Nc1ncc2c(n1)-c1cc(C(F)(F)F)ccc1NC(=S)C2 .
7.60 to 8.30

Using the record for Cc1ncc(CCN2CCC(N(C)C)C2)cc1Nc1ncc2c(n1)-c1ccc(Cl)cc1NC(=S)C2 (stereo not shown) , state its measured pIC50.
> 8.30

In one line, give reported pIC50 of the entry Cc1nc(NC2CCNCC2)ccc1Nc1ncc2c(n1)-c1ccc(C(F)(F)F)cc1NC(=S)C2 .
> 8.30

Please list pIC50 recorded for the molecule Cc1nc(N2CCOCC2)ccc1Nc1ncc2c(n1)-c1cc(CCCN(C)C)c(Cl)cc1NC(=S)C2
7.60 to 8.30

Kindly indicate its recorded pIC50. Item: Cc1nc(C(=O)NCCN2CCOCC2)ccc1Nc1ncc2c(n1)-c1ccc(C(F)(F)F)cc1NC(=S)C2
> 8.30
